Entry source: patent EP4793271A1

Tested on: primary cultured cells of mouse fetus-derived dorsal root ganglia (DRGs)
Assay: Suppression of axonal degeneration after axotomy in DRG explant culture
Format: cell-based
Settings: Mus musculus; minimum concentration at which axonal degeneration was suppressed (DI 0.3 or less); 24 hours after axotomy; read-out: Evaluation on protection against degeneration
observation-type: minimal effective concentration

The cases that follow already have their minimal effective concentration on record.
                                   compound                 observation_type             val
0  O=C(COc1ccc(C(F)(F)F)cc1)Nc1ccc(CNC(=O)c2cccnc2)cn1 [Compound 176]  minimal effective concentration  0.01 to 0.1 µM
1  CC(C)CC(=O)Nc1ccc(CNC(=O)c2cccnc2)cn1 [Compound 162]  minimal effective concentration       ≤ 0.01 µM
2  COC(=O)C(CCCNC(=O)c1cccnc1)NC(=O)c1cccnc1 (stereo not drawn) [compound 48]  minimal effective concentration     0.1 to 1 µM
3  O=C(CCc1ccc(C(F)(F)F)cc1)Nc1ccc(CNC(=O)c2cccnc2)cn1 [Compound 169]  minimal effective concentration       ≤ 0.01 µM
4  NCCCOCCOCCCNC(=O)c1cccnc1 [compound 106]  minimal effective concentration       ≤ 0.01 µM
5  O=C(NCc1cccc(CNC(=O)c2cccnc2)n1)c1ccncc1 [Compound 151]  minimal effective concentration     0.1 to 1 µM
6  O=C(/C=C/c1ccc(OC(F)(F)F)cc1)Nc1ccc(CNC(=O)c2cccnc2)cn1 [Compound 168]  minimal effective concentration       ≤ 0.01 µM
7  CC(=O)NCc1ccc(OCCCNC(=O)c2cccnc2)cc1 [compound 20]  minimal effective concentration  0.01 to 0.1 µM

// next entry
(Q) What measured minimal effective concentration is associated with O=C(NCc1ccc(NC(=O)C2CCOCC2)cc1)c1cccnc1 [compound 108] on primary cultured cells of mouse fetus-derived dorsal root ganglia (DRGs)?
(A) ≤ 0.01 µM

###

Consider the following molecules; for each one, report its inhibition at 30 µM.
Molecular target: hSARM1 (Homo sapiens)
Sequence (Q6SZW1 28-724): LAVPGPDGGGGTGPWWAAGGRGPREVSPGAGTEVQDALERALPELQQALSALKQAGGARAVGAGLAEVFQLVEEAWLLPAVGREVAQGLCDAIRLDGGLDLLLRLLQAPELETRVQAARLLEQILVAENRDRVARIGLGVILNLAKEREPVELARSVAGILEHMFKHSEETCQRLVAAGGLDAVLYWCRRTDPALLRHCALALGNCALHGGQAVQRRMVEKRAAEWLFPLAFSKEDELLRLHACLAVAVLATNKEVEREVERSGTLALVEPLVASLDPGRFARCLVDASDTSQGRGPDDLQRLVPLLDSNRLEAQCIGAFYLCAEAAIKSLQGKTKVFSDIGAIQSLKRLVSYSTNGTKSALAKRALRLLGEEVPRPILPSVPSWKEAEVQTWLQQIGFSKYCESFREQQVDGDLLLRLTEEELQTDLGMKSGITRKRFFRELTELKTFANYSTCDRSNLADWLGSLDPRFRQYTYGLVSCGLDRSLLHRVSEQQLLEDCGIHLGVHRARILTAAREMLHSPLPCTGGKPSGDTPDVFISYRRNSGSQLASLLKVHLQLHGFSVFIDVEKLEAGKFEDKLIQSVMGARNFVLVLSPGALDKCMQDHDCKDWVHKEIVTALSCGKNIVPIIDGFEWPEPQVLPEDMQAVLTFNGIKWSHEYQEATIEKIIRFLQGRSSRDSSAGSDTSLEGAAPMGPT
Experiment: Human SARM1 activity measurement in HEK293 cells transiently transfected with ΔN-hSARM1 (PC6 fluorescent probe)
Assay type: cell-based
Design: expressed in transfected cells; host or cells: HEK293, pcDNA3 expression vector
Conditions: inhibition rate; compound 30 µM; PC6 50 µM; HEK293 cells expressing ΔN-hSARM1; approximately 48 hours from transfection; read-out: Evaluation on hSARM1 inhibitory

The cases that follow already have their inhibition at 30 µM on record.
                              smiles_string    val
0  O=C(NCc1ccc(NC(=O)c2cccc(C(F)(F)F)c2)nc1)c1cccnc1  > 75%
1   COCOc1cccc(OCCOCCNC(=O)/C=C/c2cccnc2)c1  > 75%
2     O=C(NCc1ccc(NC(=O)C2CCC2)cc1)c1cccnc1  > 75%
3    CC(C)CCC(=O)Nc1ccc(CNC(=O)c2cccnc2)cn1  > 75%
4  O=C(/C=C/c1ccc(OC(F)(F)F)cc1)Nc1ccc(CNC(=O)c2cccnc2)cn1  > 50%

// for each molecule in input: emit inhibition at 30 µM
1. CCc1ccc(C(=O)Nc2ccc(CNC(=O)c3cccnc3)cn2)cc1
2. O=C(CCc1ccc(OC(F)(F)F)cc1)Nc1ccc(CNC(=O)c2cccnc2)cn1
3. O=C(NCc1ccc(NC(=O)c2ccccc2)nc1)c1cnc2ccccc2c1

(A)
> 75%
> 75%
> 10%

(Q) What measured inhibition at 30 µM is associated with `O=C(NCCCOc1ccc(CNC(=O)c2ccccc2)cc1)c1cccnc1` on hSARM1 (Homo sapiens)?
(A) > 75%
